Test: in vivo
Settings: goldfish (Carassius auratus), in vivo, plasma concentration, JH caged
For each record, write down the corresponding concentration at 21 days.

Recorded results for 3 compounds are shown here.
| compound | concentration at 21 days |
| --- | --- |
| Cc1cc(C)nc(NS(=O)(=O)c2ccc(N)cc2)n1 | < 0.12 ng/g |
| C[C@]12CCC(=O)C=C1CC[C@@H]1[C@@H]2[C@@H](O)C[C@@]2(C)[C@H]1CC[C@]2(O)C(=O)CO [Hydrocortisone] | 92.4 ng/g |
| CC1CCc2cc(F)cc3c(=O)c(C(=O)O)cn1c23 (centres unmarked) | < 0.3 ng/g |

Required: concentration at 21 days, one value per compound below.
1. C[C@H](O)C(=O)Nc1c(I)c(C(=O)NC(CO)CO)c(I)c(C(=O)NC(CO)CO)c1I
2. CN(C)CCCC1(c2ccc(F)cc2)OCc2cc(C#N)ccc21 (centres unmarked)

### Response
< 16 ng/g
< 0.08 ng/g
